Where do the numbers come from? From PubChem BioAssay (NCI).

- System: NCI-H226 lung
- Protocol Notes: NCI-60 one-dose screen, 48 h
- Recorded Conditions: 10 µM unless noted
The panel holds about 83,000 compounds, 20% with a hit somewhere; the sample as a whole holds those more often. Active and inactive are the calls of the source. How the source made its calls: active means growth percent below 10; inactive means the rest.
The categories you may choose from are 1 = active, 0 = inactive

Examples with answers:
1) CSc1ccc2c(c1)N(CCC1CCCCN1C)c1ccccc1S2 (stereo not drawn)    0
2) COc1ccc2c(c1)nc(N)c1c3ccccc3cn21    0
3) COc1ccc(CCN2CCCN3C2=Nc2ccccc2S3(=O)=O)cc1    0
4) Cn1cc(-c2csc(-c3c[nH]c4ncccc34)n2)c2cc(F)cnc21    0
5) Nc1nc(SCc2ccccc2Cl)c(-c2ccccc2)c(SCc2ccccc2Cl)n1    0

Please examine the following record next.
Qu. Returns: the outcome recorded for c1cnc2ccc3ncccc3c2c1 in this assay.
Ans. 0

====

- Tested on: DU-145 prostate
- Protocol Notes: NCI-60 one-dose screen, 48 h
- Recorded Conditions: 10 µM unless noted
This is part of a sample that, as a whole, favours compounds with a hit. Of some 83,000 tested, about 20% had one in any assay. Activity calls are given as the source filed them. How the source made its calls: active means growth percent below 10; inactive means the rest.
The categories you may choose from are 1 (active), -1 (inactive)

1) C[C@@H]1CC[C@H]2[C@@H](C)C(O)O[C@@H]3O[C@]4(C)CC[C@@H]1[C@]32OO4 (stereo not given in full)    -1
2) COc1ccc2c(c1)/C(=C\c1c[nH]c3ccc(F)cc13)C(=O)N2    -1

Qu. Returns: the outcome recorded for C/C(=C\CCc1ccoc1)CC/C=C(\C)CCCN1CCC(CO)CC1 in this assay.
Ans. -1

Qu. Returns: the outcome recorded for CC/C=C\C=C/C(=O)N/C=C/CC1Cc2cccc(O)c2C(=O)O1 (stereo not given) in this assay.
Ans. -1

Qu. Returns: the outcome recorded for O=C(C(=O)N1CCCCC1)c1ccc(OC2OC(CO)C(O)C(O)C2O)cc1 (stereo not given) in this assay.
Ans. -1

Qu. Returns: the outcome recorded for COc1cc(NC(=O)c2cc3ccccc3cc2O)c(OC)cc1Cl in this assay.
Ans. -1

Qu. Returns: the outcome recorded for CCN1C[C@@H](C)n2c(c(O)c3c(=O)n(Cc4ccc(F)c(Cl)c4)nc(C(=O)NC)c32)C1=O in this assay.
Ans. -1

Qu. Returns: the outcome recorded for Clc1ccc(CCC(Cn2ccnc2)Sc2c(Cl)cccc2Cl)cc1 (stereo not given) in this assay.
Ans. -1

Qu. Returns: the outcome recorded for O=C1/C(=C/c2ccc([N+](=O)[O-])o2)Oc2ccc(Br)cc21 in this assay.
Ans. -1

Qu. Returns: the outcome recorded for CCC1=C(c2ccc(OC)cc2)C(C)(C)Oc2cc(O)c(CN3CCCC3)cc21 in this assay.
Ans. -1

Qu. Returns: the outcome recorded for CO[C@H]1CC(O[C@@H]2/C(C)=C/C[C@@H]3C[C@@H](C[C@]4(CC[C@H](C)[C@@H](C5CCCCC5)O4)O3)OC(=O)[C@@H]3C=C(C)/C(=N/O)[C@H]4OC/C(=C\C=C\[C@@H]2C)[C@]43O)O[C@@H](C)C1O (stereo not given in full) in this assay.
Ans. 1

Qu. Returns: the outcome recorded for O=C(/C(=N/O)S(=O)(=O)c1ccccc1)c1cccs1 in this assay.
Ans. -1

Qu. Returns: the outcome recorded for C=C(C[C@](O)(C(=O)/C=C/c1ccc(Cl)cc1)C(=O)OC)c1ccccc1 in this assay.
Ans. -1

Qu. Returns: the outcome recorded for c1ccc(N2CCN(c3nncc4ccccc34)CC2)nc1 in this assay.
Ans. -1

Qu. Returns: the outcome recorded for Cc1ccc(NC(=O)Nc2ccc(-c3cccnc3)cc2N2CCC(CO)CC2)cc1 in this assay.
Ans. -1

Qu. Returns: the outcome recorded for Oc1ccc(-c2nn(-c3ccccc3)cc2-c2nc3ccccc3s2)cc1 in this assay.
Ans. -1

Qu. Returns: the outcome recorded for Clc1ccc2nc(Cl)c3ccccc3c2c1 in this assay.
Ans. -1

Qu. Returns: the outcome recorded for COc1ccc(-c2noc(N)c2-c2cc(OC)c3c(c2)OCO3)cc1 in this assay.
Ans. -1

Qu. Returns: the outcome recorded for COC(=O)[C@]1(C(C)C)N[C@H](c2cn(-c3ccccc3)nc2-c2ccccc2)[C@@H]2C(=O)N(c3ccc(Cl)cc3)C(=O)[C@@H]21 in this assay.
Ans. -1

Qu. Returns: the outcome recorded for Fc1ccc(-c2nc(Nc3ccc(-c4nc5ccccc5[nH]4)cc3)nc(N3CCOCC3)n2)cc1 in this assay.
Ans. 1

Qu. Returns: the outcome recorded for Cc1cc(N2CCOCC2)nc(N2CCOCC2)n1 in this assay.
Ans. -1

Qu. Returns: the outcome recorded for O=C1/C(=N/O)CCc2ccccc21 in this assay.
Ans. -1

====

- Tested on: LOX IMVI melanoma
- Protocol Notes: NCI-60 one-dose screen, 48 h (100 = growth as untreated, 0 = no growth, -100 = all killed)
- Recorded Conditions: 10 µM unless noted
About 83,000 compounds went through this panel and 20% of them were active in at least one assay; those are over-represented in the sample as a whole.
As shown below, each of these compounds has a reported growth value.
Provide only the numeric value, understood in %.

1. Cc1cc([N+](=O)[O-])c(C)cc1C(=O)O    103

Then there is this compound:
Lookup result for COc1ccc(C2CC(c3ccc(OC)c(OC)c3)=NN2C(=O)c2cc(OC)c(OC)c(OC)c2)c(OC)c1 (stereo unspecified) ; measured growth: 56.6

====

- Test system: MOLT-4 leukemia
- Protocol Notes: NCI-60 one-dose screen, 48 h (100 = growth as untreated, 0 = no growth, -100 = all killed)
- Recorded Conditions: 10 µM unless noted
About 83,000 compounds went through this panel and 20% of them were active in at least one assay; those are over-represented in the sample as a whole. The source made the active and inactive calls. How the source made its calls: active means growth percent below 10; inactive means the rest.
As shown below, each of these molecules has a reported growth value.

1) NNC(=O)C1CC2c3ccccc3C1c1ccccc12 (stereo not drawn)    105% (inactive)
2) NC(N)=NC(N)=NCCCc1ccccc1    73.8% [100 µM] (inactive)
3) COc1ccc(/C=C(\C#N)c2ccccc2)cc1    96.1% (inactive)
4) CN(C)c1ccc(/C=C(\C#N)c2nc3ccccc3c(=O)[nH]2)cc1    118% (inactive)
5) Fc1ccc(-c2nnc(-c3c(-c4ccc(F)cc4)nc4ncccn34)o2)cc1    83.4% (inactive)

Lookup result for COc1ccc(-c2csc(NC(=O)c3cc(OC)c(OC)c(OC)c3)n2)cc1 ; measured growth: 103% (inactive)

Lookup result for C/C(=C\CCc1ccoc1)CC/C=C(\C)CCCN1CCC(CO)CC1 ; measured growth: 24.6% (inactive)

Lookup result for CSc1ncc2ncn(C3OC(CO)C(O)C3O)c2n1 (stereo not drawn) ; measured growth: 109% (inactive)

====

- System: 786-0 renal
- Protocol Notes: NCI-60 one-dose screen, 48 h (100 = growth as untreated, 0 = no growth, -100 = all killed)
- Recorded Conditions: 10 µM unless noted
- Method: Cells are grown in 96 well plates and exposed to the test compound for 48 hours. Compounds are tested at a single concentration, which is 10^-5 M for most compounds. The reported endpoint is percent growth (GI% or GIPRCNT), where numbers from 0 - 100% represent growth inhibition, and numbers from -100% - 0 represent cell death. For example, a value of 40 represents 60% growth inhibition. A value of 0 means no net growth occurred over the course of the experiment. […]
This is part of a sample that, as a whole, favours compounds with a hit. Of some 83,000 tested, about 20% had one in any assay.
Readout Type: growth (%)
Provide only the numeric value, understood in %.

1. c1ccc(-c2nnc(Nc3nnc(-c4ccccc4)s3)s2)cc1    106
2. COc1cc(C2CC(=O)Nc3c2cc(Br)c2ccccc32)cc(Br)c1OC (stereo not drawn)    0.846

Then there is this compound:
Lookup result for Nc1ccc(C2=Nc3cccc4cccc(c34)S2)cc1 ; measured growth: 121

====

As shown below, each of these compounds has a reported growth value.
- System: A498 renal
- Protocol Notes: NCI-60 one-dose screen, 48 h (100 = growth as untreated, 0 = no growth, -100 = all killed)
- Recorded Conditions: 10 µM unless noted
Compounds without any hit were thinned out: in the full panel of roughly 83,000, 20% have a hit.
Provide only the numeric value, understood in %.

Known growth results, listed for orientation:
1) O=C(Nc1ccncc1)C(=O)c1cn(S(=O)(=O)c2cccc(F)c2)c2ccccc12    60.2
2) COC(=O)CCC1=C(CC(=O)OC)C(C)=N/C1=C\c1[nH]c(-c2ccc[nH]2)cc1OC    72.1
3) CN(CCOc1ccc(CC2SC(=O)NC2=O)cc1)c1ccccn1 (stereo unspecified)    110
4) Cc1c(C(N)=O)sc2c1c(=O)n(Cc1ccccc1)c1nnc(S(=O)(=O)CC(=O)Nc3ccc(Cl)cc3)n21    22.6
5) COc1ccc(-c2nn(-c3cccc(Cl)c3)cc2C2CC(c3ccccc3)=NN2C(C)=O)cc1 (stereo unspecified)    56.9

Then there is this compound:
Reported A498 renal growth for item CCCCCCCC/C=C/CCCCCCCC1=NC(C)(C)CN1CC(C)O (stereo unspecified) was 76.9
